Origin of the recorded values: patent US20260132129A1

assay.target: PI3Kα H1047R (T47D cells) (Homo sapiens, UniProt P42336, H1047R)
Construct: endogenous in cells; host or cells: T47D cells
Sequence (P42336 whole entry H1047R): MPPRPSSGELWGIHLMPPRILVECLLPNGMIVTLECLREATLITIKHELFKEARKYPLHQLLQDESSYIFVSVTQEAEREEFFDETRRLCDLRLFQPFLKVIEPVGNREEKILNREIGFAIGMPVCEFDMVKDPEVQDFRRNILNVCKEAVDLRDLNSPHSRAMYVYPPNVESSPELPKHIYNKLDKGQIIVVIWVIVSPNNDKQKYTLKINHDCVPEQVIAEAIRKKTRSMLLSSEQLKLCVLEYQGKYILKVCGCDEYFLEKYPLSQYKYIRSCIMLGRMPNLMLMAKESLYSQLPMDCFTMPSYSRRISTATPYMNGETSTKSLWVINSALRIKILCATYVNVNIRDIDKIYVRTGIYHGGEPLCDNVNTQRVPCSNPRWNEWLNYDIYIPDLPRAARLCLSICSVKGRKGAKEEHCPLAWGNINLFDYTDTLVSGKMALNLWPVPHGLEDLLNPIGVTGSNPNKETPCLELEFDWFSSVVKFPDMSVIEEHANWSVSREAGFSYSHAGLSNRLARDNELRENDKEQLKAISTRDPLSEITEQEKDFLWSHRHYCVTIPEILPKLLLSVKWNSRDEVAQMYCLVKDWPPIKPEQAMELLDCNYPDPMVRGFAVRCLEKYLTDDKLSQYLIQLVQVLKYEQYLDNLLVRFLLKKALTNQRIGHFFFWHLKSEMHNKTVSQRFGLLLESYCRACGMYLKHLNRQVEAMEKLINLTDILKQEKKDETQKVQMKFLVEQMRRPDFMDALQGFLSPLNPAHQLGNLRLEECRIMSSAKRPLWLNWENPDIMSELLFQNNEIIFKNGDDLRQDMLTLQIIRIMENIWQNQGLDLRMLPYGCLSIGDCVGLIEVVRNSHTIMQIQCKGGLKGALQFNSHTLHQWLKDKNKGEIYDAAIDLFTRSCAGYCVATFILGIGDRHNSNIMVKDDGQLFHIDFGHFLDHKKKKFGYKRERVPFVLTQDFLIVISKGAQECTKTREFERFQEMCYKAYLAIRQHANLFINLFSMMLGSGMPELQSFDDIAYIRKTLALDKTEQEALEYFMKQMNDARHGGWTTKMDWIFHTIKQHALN
Sequence (P27986 whole entry partner): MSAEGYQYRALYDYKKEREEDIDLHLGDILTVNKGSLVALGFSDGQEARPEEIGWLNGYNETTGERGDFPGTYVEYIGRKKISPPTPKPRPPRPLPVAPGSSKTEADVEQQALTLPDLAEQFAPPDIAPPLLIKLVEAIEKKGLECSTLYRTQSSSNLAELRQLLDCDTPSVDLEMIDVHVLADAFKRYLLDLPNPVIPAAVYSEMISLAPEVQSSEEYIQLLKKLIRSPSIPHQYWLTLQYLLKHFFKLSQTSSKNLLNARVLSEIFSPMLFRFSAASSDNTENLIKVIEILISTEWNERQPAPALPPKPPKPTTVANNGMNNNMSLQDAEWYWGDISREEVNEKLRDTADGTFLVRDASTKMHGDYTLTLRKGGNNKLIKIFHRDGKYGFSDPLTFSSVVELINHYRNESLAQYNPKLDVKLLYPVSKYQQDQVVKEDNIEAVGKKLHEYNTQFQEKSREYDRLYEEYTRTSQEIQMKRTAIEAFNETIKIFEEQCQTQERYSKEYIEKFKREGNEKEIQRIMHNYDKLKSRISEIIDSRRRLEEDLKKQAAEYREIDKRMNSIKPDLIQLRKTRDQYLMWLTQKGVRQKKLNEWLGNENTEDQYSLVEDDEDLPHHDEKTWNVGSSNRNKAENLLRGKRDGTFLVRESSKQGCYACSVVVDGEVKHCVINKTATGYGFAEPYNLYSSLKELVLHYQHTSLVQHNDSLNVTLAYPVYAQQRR
procedure.details: PI3Kα cellular assay: pAKT HTRF in T47D cells after EGF stimulation
Format: cell-based
test.parameters: T47D cells (PI3Kα H1047R), pAKT S473 HTRF, 1 hr compound, 20 ng/ml EGF 10 min
measurement.kind: IC50

Example entries and their recorded answers appear below.
INSERT INTO assay_data (compound, measurement_kind, value_observed) VALUES
  ('Cc1cc(C(C)Nc2ccccc2C(=O)O)c2nc(C3CCN(CC(N)=O)CC3)cc(=O)n2c1 (stereo not drawn)', 'IC50', '> 2000 nM'),
  ('Cc1cc([C@H](C)Nc2ccccc2C(=O)O)c2nc(N3C[C@@H]4CC(F)(F)C[C@@H]4C3)cc(=O)n2c1 (single isomer, unassigned)', 'IC50', '< 100 nM'),
  ('Cc1cc(C(C)Nc2ccccc2C(=O)O)c2nc(-c3ccc4c(c3)NC(CO)N4)cc(=O)n2c1 (stereo not drawn)', 'IC50', '> 2000 nM'),
  ('Cc1cc([C@H](C)Nc2ccccc2C(=O)O)c2nc(C3CCN(CC(N)=O)CC3)cc(=O)n2c1', 'IC50', '> 2000 nM'),
  ('Cc1cc([C@H](C)Nc2ccccc2C(=O)O)c2nc(N3CCO[C@H](C)C3)cc(=O)n2c1', 'IC50', '< 100 nM'),
  ('Cc1cc([C@H](C)Nc2cccc3[nH]c(=O)oc23)c2nc(N3CCOCC3)cc(=O)n2c1', 'IC50', '> 2000 nM'),
  ('CNC1=NC2C=C(c3cc(=O)n4cc(C)cc(C(C)Nc5ccccc5C(=O)O)c4n3)C=CC2=C1 (stereo not drawn)', 'IC50', '100 to 500 nM'),
  ('COCCNc1cc(=O)n2cc(C)cc(C(C)Nc3ccccc3C(=O)O)c2n1 (stereo not drawn)', 'IC50', '> 2000 nM');

The measured IC50 that Cc1cc(C(C)Nc2ccccc2)c2nc(-c3cnc4[nH]nc(-c5ccccc5)c4c3)cc(=O)n2c1 (stereo not drawn) showed for PI3Kα H1047R (T47D cells) (Homo sapiens, UniProt P42336, H1047R) is > 2000 nM

====

assay.target: PI3Kα H1047R (T47D cells) (Homo sapiens, UniProt P42336, H1047R)
Construct: endogenous in cells; host or cells: T47D cells
procedure.details: PI3Kα cellular assay: pAKT HTRF in T47D cells after EGF stimulation
Assay type: cell-based
test.parameters: T47D cells (PI3Kα H1047R), pAKT S473 HTRF, 1 hr compound, 20 ng/ml EGF 10 min
pIC50: −log10 of the molar value.
Readings of pIC50 for the listed molecules

Example entries and their recorded answers appear below.
INSERT INTO assay_data (molecule, value_observed) VALUES
  ('Cc1cc(C(C)Nc2ccccc2C(=O)O)c2nc(-c3cccc(-c4nn[nH]n4)c3)cc(=O)n2c1 (stereo not drawn)', '< 5.70'),
  ('Cc1cc(C(C)Nc2ccccc2C(=O)O)c2nc(-c3ccc4nc(NC(=O)C5CC5)nn4c3)cc(=O)n2c1 (stereo not drawn)', '< 5.70'),
  ('Cc1cc([C@@H](C)Nc2ccccc2S(N)(=O)=O)c2nc(N3Cc4ccccc4C3)cc(=O)n2c1', '> 7.00'),
  ('Cc1cc(C(C)Nc2ccccc2C(=O)O)c2nc(N3CCC4(CC3)CC(=O)N4)cc(=O)n2c1 (stereo not drawn)', '< 5.70'),
  ('Cc1cc([C@@H](C)Nc2ccccc2C(=O)O)c2nc(N3CCS(=O)(=O)CC3)cc(=O)n2c1', '< 5.70'),
  ('Cc1cc([C@H](C)Nc2ccccc2C(=O)O)c2nc(Nc3ccc4[nH]c(=O)[nH]c4c3)cc(=O)n2c1', '< 5.70'),
  ('Cc1cc(C(C)Nc2ccccc2C(=O)O)c2nc(-c3ccncc3)cc(=O)n2c1 (single isomer, unassigned) [Compound 268]', '< 5.70'),
  ('COc1ccc(C(=O)O)c(NC(C)c2cc(C)cn3c(=O)cc(N4CCOCC4)nc23)c1 (stereo not drawn)', '< 5.70');

The measured pIC50 that Cc1cc(C(C)Nc2ccccc2C(=O)O)c2nc(C3CCC(C)(C)CC3)cc(=O)n2c1 (stereo not drawn) showed for PI3Kα H1047R (T47D cells) (Homo sapiens, UniProt P42336, H1047R) is 6.30 to 7.00

The measured pIC50 that `Cc1cc([C@@H](C)Nc2ccccc2C(=O)NS(C)(=O)=O)c2nc(N3CCOCC3)cc(=O)n2c1` showed for PI3Kα H1047R (T47D cells) (Homo sapiens, UniProt P42336, H1047R) is < 5.70

The measured pIC50 that Cc1cc(C(C)Nc2ccc(C#N)cc2C(=O)O)c2nc(N3CCOCC3)cc(=O)n2c1 (stereo not drawn) showed for PI3Kα H1047R (T47D cells) (Homo sapiens, UniProt P42336, H1047R) is < 5.70

The measured pIC50 that `Cc1cc([C@H](C)Nc2cccc3c2CCC(=O)N3)c2nc(N3CCOCC3)cc(=O)n2c1` showed for PI3Kα H1047R (T47D cells) (Homo sapiens, UniProt P42336, H1047R) is < 5.70

The measured pIC50 that `Cc1cc([C@H](C)Nc2ccccc2-c2ccnnc2)c2nc(N3CCOCC3)cc(=O)n2c1` showed for PI3Kα H1047R (T47D cells) (Homo sapiens, UniProt P42336, H1047R) is 5.70 to 6.30

The measured pIC50 that Cc1cc(C(C)Nc2ccccc2C(=O)O)c2nc(-c3ccc(CN4CCN(C(=O)C5CC5)CC4)c(F)c3)cc(=O)n2c1 (single isomer, unassigned) [Compound 420] showed for PI3Kα H1047R (T47D cells) (Homo sapiens, UniProt P42336, H1047R) is 6.30 to 7.00

The measured pIC50 that `Cc1cc([C@@H](C)Nc2ccccc2C(=O)O)c2cc(-c3ccnnc3)cc(=O)n2c1` showed for PI3Kα H1047R (T47D cells) (Homo sapiens, UniProt P42336, H1047R) is 5.70 to 6.30

====

assay.target: PI3Kα H1047R (T47D cells) (Homo sapiens, UniProt P42336, H1047R)
Construct: endogenous in cells; host or cells: T47D cells
procedure.details: PI3Kα cellular assay: pAKT HTRF in T47D cells after EGF stimulation
Type: cell-based
test.parameters: selectivity of T47D (H1047R) over SKBR3 (WT) pAKT IC50
measurement.kind: T47D pAKT S473 HTRF IC50 (H1047R): T47D (H1047R) selectivity over SKBR3 (WT)

INSERT INTO measurements (molecule, value_observed) VALUES
  ('Cc1cc([C@@H](C)Nc2ccccc2C(=O)O)c2nc(N3C[C@@H](C)C(F)(F)[C@@H](C)C3)cc(=O)n2c1 (single isomer, unassigned)', 'A (A denotes >20-fold)'),
  ('Cc1cc([C@@H](C)Nc2ccccc2C(=O)O)c2nc(-c3cnc4c(c3)c(C)cn4C)c(C)c(=O)n2c1', 'A (A denotes >20-fold)');

====

assay.target: PI3Kα H1047R (T47D cells) (Homo sapiens, UniProt P42336, H1047R)
Construct: endogenous in cells; host or cells: T47D cells
procedure.details: PI3Kα cellular assay: pAKT HTRF in T47D cells after EGF stimulation
Type: cell-based
test.parameters: selectivity of T47D (H1047R) over SKBR3 (WT) pAKT IC50
measurement.kind: T47D pAKT S473 HTRF IC50 (H1047R): T47D (H1047R) selectivity over SKBR3 (WT)

INSERT INTO results (compound, value_observed) VALUES
  ('Cc1cc(C(C)Nc2ccccc2C(=O)O)c2nc(-c3ccc4c(c3)c(C)nn4C3CC3)cc(=O)n2c1 (centres unmarked)', 'A (A denotes >20-fold)'),
  ('Cc1cc(C(C)Nc2ccccc2C(=O)O)c2nc(-c3ccc4c(c3)c(C(F)(F)F)nn4C)cc(=O)n2c1 (centres unmarked)', 'A (A denotes >20-fold)'),
  ('Cc1cc([C@@H](C)Nc2ccccc2C(=O)O)c2nc(-c3ccc4snc(N)c4c3)cc(=O)n2c1', 'A (A denotes >20-fold)'),
  ('Cc1cc(C(C)Nc2ccccc2C(=O)O)c2nc(-n3cnc4ccc(O)cc43)cc(=O)n2c1 (centres unmarked) [Compound 799]', 'C (C denotes ≤5-fold)');

The measured T47D pAKT S473 HTRF IC50 (H1047R): T47D (H1047R) selectivity over SKBR3 (WT) that `Cc1cc([C@H](C)Nc2ccccc2C(=O)O)c2nc(-c3cnc4cc(O)ccn34)cc(=O)n2c1` showed for PI3Kα H1047R (T47D cells) (Homo sapiens, UniProt P42336, H1047R) is C (C denotes ≤5-fold)

The measured T47D pAKT S473 HTRF IC50 (H1047R): T47D (H1047R) selectivity over SKBR3 (WT) that Cc1cc(C(C)Nc2ccccc2C(=O)O)c2nc(-c3ccc4c(c3)CC(F)(F)C4)cc(=O)n2c1 (centres unmarked) showed for PI3Kα H1047R (T47D cells) (Homo sapiens, UniProt P42336, H1047R) is A (A denotes >20-fold)

The measured T47D pAKT S473 HTRF IC50 (H1047R): T47D (H1047R) selectivity over SKBR3 (WT) that `Cc1cc([C@@H](C)Nc2ccccc2S(N)(=O)=O)c2nc(-c3cccc(C#N)c3)c(C)c(=O)n2c1` showed for PI3Kα H1047R (T47D cells) (Homo sapiens, UniProt P42336, H1047R) is A (A denotes >20-fold)
